# method.summary: Apparent volume of distribution with respect to the bioavailability in mouse at 10 mg/kg, po
# Type: ADME, organism-based
# cond: in vivo, read-out: Vc/F
observable: Vd/F (L/kg)
Write the answer as a number in L/kg, unit excluded.

get_value(item= CCOc1ccc(Cc2cc([C@@H]3OC(OC)[C@@H](O)[C@H](O)[C@H]3O)ccc2Cl)cc1 (mixture of isomers; 7a) , readout=Vd/F) returns 8.48

###

# method.summary: Volume of distribution at steady state in mouse at 1 mg/kg, iv
# Format: ADME, organism-based
# Parameters: dose 1 mg/kg, route intravenous
# cond: in vivo, read-out: Vdss
observable: Vd (L/kg)
Write the answer as a number in L/kg, unit excluded.

get_value(item= CCOc1ccc(Cc2cc([C@@H]3OC(OC)[C@@H](O)[C@H](O)[C@H]3O)ccc2Cl)cc1 (mixture of isomers; 7a) , readout=Vd) returns 1.98

###

# study.system: Sodium/glucose cotransporter 2 (Mus musculus, UniProt Q923I7)
# Sequence (Q923I7 whole entry): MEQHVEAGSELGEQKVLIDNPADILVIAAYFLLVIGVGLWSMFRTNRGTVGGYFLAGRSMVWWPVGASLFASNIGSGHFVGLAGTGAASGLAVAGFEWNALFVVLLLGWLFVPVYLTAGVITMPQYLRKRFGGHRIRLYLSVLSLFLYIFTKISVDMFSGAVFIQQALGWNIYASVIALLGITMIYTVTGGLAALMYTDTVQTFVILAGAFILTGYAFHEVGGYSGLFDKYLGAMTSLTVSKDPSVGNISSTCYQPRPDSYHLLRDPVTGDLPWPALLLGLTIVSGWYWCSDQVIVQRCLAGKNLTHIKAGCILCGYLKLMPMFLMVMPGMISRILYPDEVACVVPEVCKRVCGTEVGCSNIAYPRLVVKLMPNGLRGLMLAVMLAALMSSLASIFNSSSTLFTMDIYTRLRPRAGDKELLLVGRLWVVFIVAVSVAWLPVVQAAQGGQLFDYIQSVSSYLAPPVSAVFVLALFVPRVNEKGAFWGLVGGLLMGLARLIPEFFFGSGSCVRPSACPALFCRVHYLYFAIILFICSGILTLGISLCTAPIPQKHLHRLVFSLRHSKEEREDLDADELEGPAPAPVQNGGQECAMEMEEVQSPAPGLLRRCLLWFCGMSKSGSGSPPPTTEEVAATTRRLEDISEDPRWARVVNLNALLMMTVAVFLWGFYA
# method.summary: Inhibition of mouse SGLT2-mediated [14C]alpha-methylglucopyranoside uptake by cell based assay
IC50 by entry:
Note to self: number, then unit, no commentary.

[[record]]
compound = "CCOc1ccc(C(=O)c2cc([C@@H]3OC(OC)[C@@H](O)[C@H](O)[C@H]3O)ccc2Cl)cc1 (single isomer, unassigned)"
observable = "IC50"
endpoint_value = "57 nM"

[[record]]
compound = "CCOc1ccc(Cc2cc([C@@H]3OC(OC)C[C@H](O)[C@H]3O)ccc2Cl)cc1 (mixture of isomers)"
observable = "IC50"
endpoint_value = "14000 nM"

[[record]]
compound = "CCOc1ccc(Oc2cc([C@@H]3OC(OC)[C@@H](O)[C@H](O)[C@H]3O)ccc2Cl)cc1 (mixture of isomers)"
observable = "IC50"
endpoint_value = "1900 nM"

[[record]]
compound = "CCOc1ccc(Cc2cc([C@@H]3OC(OC(C)C)[C@@H](O)[C@H](O)[C@H]3O)ccc2Cl)cc1 (mixture of isomers)"
observable = "IC50"
endpoint_value = "190 nM"

[[record]]
compound = "COC1O[C@@H](c2ccc(Cl)c(Cc3ccc(O[C@H]4CCN(C)C4)cc3)c2)[C@H](O)[C@@H](O)[C@@H]1O (mixture of isomers)"
observable = "IC50"
endpoint_value = "92 nM"


get_value(item= CCOc1ccc(Cc2cc([C@@H]3OC(OCCO)[C@@H](O)[C@H](O)[C@H]3O)ccc2Cl)cc1 (mixture of isomers) , readout=IC50) returns 23 nM

get_value(item= CCOc1ccc(Cc2cc([C@@H]3OC(OCc4ccccc4)[C@@H](O)[C@H](O)[C@H]3O)ccc2Cl)cc1 (mixture of isomers) , readout=IC50) returns 330 nM

Source of measurements: ChEMBL document CHEMBL1156071
